# Tested on: SF-539 CNS
# Protocol text: NCI-60 one-dose screen, 48 h (100 = growth as untreated, 0 = no growth, -100 = all killed)
# Protocol conditions: 10 µM unless noted
# Protocol: Cells are grown in 96 well plates and exposed to the test compound for 48 hours. Compounds are tested at a single concentration, which is 10^-5 M for most compounds. The reported endpoint is percent growth (GI% or GIPRCNT), where numbers from 0 - 100% represent growth inhibition, and numbers from -100% - 0 represent cell death. For example, a value of 40 represents 60% growth inhibition. A value of 0 means no net growth occurred over the course of the experiment. […]
Compounds without any hit were thinned out: in the full panel of roughly 83,000, 20% have a hit.
Field: growth. Provide a value for each of the molecules that follow.
Numbers only, in %.

Batch request: growth per item, same order as input.
1. COc1ccc(C(O)c2cc3c(N)c(C(=O)Nc4cccc(Cl)c4)sc3nc2C)cc1 (configuration not stated)
2. c1ccc(CNc2ccc3nc(CCC4CCCCC4)[nH]c3c2)cc1
3. CN1CCN(CCOc2ccc(-c3cnc4c(-c5ccc(C(F)(F)F)cc5)cnn4c3)cc2)CC1
4. C=C1C(=O)O[C@H]2[C@H]1CC/C(CNC(=O)c1cc3ccccc3[nH]1)=C\CC[C@@]1(C)O[C@@H]21
5. C#CC#CC#CC#CC#CC#CC#CC#CCC1OCC(COC(=O)O[C@@H](C(=O)O[C@H]2C[C@@]3(O)[C@@H](OC(=O)c4ccccc4)[C@@H]4[C@]5(OC(C)=O)CO[C@@H]5C[C@H](O)[C@@]4(C)C(=O)[C@H](OC(C)=O)C(=C2C)C3(C)C)[C@@H](NC(=O)c2ccccc2)c2ccccc2)O1 (some centres not stated)
6. CCc1cccc(Sc2cc(C(=O)N3Cc4ccc(OCCN(C)C)cc4C3)ccc2O)c1
7. Cc1c2cc[nH]c(=O)c2c(C)c2c1[nH]c1ccc(OC(=O)c3ccccc3)cc12

Reply text:
[2.14, 82.1, 67.6, -77.1, -0.927, 89, 17.1]

---

# System: SNB-75 CNS
# Protocol text: NCI-60 one-dose screen, 48 h
# Protocol conditions: 10 µM unless noted
About 83,000 compounds went through this panel and 20% of them were active in at least one assay; those are over-represented in the sample as a whole. Calls of active or inactive are those of the source. Rule for the calls: active = growth percent below 10; inactive = the rest.
API: response.call in active, inactive

// below: answered compounds
O=C(Cn1cc(CN2C(=O)c3ccccc3S2(=O)=O)nn1)Nc1cccc(Cl)c1 :: inactive
C#CC#CC#CC#CC#CC#CC#CC#CC[C@H]1OC[C@H](COC(=O)O[C@@H](C(=O)O[C@H]2C[C@@]3(O)[C@@H](OC(=O)c4ccccc4)[C@@H]4[C@]5(OC(C)=O)CO[C@@H]5C[C@H](O)[C@@]4(C)C(=O)[C@H](OC(C)=O)C(=C2C)C3(C)C)[C@@H](NC(=O)c2ccccc2)c2ccccc2)O1 :: inactive
O=C1/C(=C/c2ccc(Br)cc2)COc2ccc(O)c(O)c21 :: inactive
CCCCN1C(=O)/C(=c2\sc3n(c2=O)NC2C(N=3)N(CC)C(=O)N2CC)c2ccccc21 (centres undefined) :: inactive
Cc1cc2nc(-c3c(-c4ccc(F)cc4)nc4sccn34)[nH]c2cc1C :: inactive
CCn1c2ccc(O)cc2c2c(C)c3c[n+](C(C)C)ccc3c(C)c21 :: inactive

Inquiry: Test call for this compound, please: COC(c1ccc2ccccc2c1)C(C)C(F)F (centres undefined)
Reply text: inactive

Inquiry: Test call for this compound, please: NS(=O)(=O)c1ccc(N/C=C/C(=O)c2cc3ccccc3oc2=O)cc1
Reply text: inactive

Inquiry: Test call for this compound, please: O=C1Nc2ccc(F)cc2/C1=N/c1nnc(Sc2ccccc2)s1
Reply text: inactive

Inquiry: Test call for this compound, please: CC(C)CCC[C@@H](C)C1CCC2C3CCC4=C/C(=N/OCCN(C)C)CC[C@]4(C)C3CC[C@@]21C (some centres undefined)
Reply text: inactive

Inquiry: Test call for this compound, please: Nc1ccc([N+](=O)[O-])cc1N=C/C=C/c1ccccc1
Reply text: inactive

Inquiry: Test call for this compound, please: CN(C)c1ccc(/C=C/C(=O)c2ccccc2)cc1
Reply text: inactive

Where do the numbers come from? From PubChem BioAssay (NCI).
